- system-tested: T1, mfPRLR.mmh (soluble monomeric macaca fascicularis PRLR) (macaca fascicularis)
- T1 construct: soluble monomeric PRLR protein; also called macaca fascicularis (mf) PRLR.mmh; monkey PRLR
- T1 chain: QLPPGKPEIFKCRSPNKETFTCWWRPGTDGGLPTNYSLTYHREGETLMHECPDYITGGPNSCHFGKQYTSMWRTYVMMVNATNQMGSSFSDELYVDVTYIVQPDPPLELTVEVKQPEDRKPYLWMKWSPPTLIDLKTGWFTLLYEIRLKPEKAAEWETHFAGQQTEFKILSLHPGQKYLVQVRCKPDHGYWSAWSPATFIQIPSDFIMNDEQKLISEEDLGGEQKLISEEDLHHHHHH
- protocol-details: SPR (Biacore), antibody capture, 37 C
pKd: −log10 of the molar value.

# binder, pKd
measured = [
    ("H1H6782P (antibody, human IgG1, V domains shown, human IgG1 Fc (H1H)) VH: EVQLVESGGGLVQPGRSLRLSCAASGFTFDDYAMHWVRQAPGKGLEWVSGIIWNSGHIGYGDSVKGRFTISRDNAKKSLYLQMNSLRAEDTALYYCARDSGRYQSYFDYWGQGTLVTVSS VL: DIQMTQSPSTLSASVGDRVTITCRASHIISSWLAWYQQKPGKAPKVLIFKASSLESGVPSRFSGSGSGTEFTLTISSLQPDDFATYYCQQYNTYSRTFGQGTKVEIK", 8.70),
]
